Where do the numbers come from? From ChEMBL document CHEMBL4616724.

test system: Pseudomonas aeruginosa; test: Antibacterial activity against Pseudomonas aeruginosa NB52023 harboring gyrA T83I mutant/ParC S87L mutant by CLSI-based broth microdilution assay; type: functional
Parameter: log10 of MIC. Scope: all listed entries.
outcomeMeasure: log10 of MIC (log10 of the value in µg/mL)

# compound, log10 of MIC
records = [
    ("NCc1cc(=O)n(C2CC2)c2c(OC(F)F)c(N3CC4CC4(N)C3)c(F)cc12 (centres undefined)", 1.51),
    ("Cc1c(N2CC[C@@H]([C@H](C)N)C2)c(F)cc2ccc(=O)n(C3CC3)c12", 0.90),
    ("Cc1c(N2CC[C@@H]([C@H](C)N)C2)c(F)cc2c(CN)cc(=O)n(C3CC3)c12", 0.30),
    ("COc1cc(=O)n(C2CC2)c2c(C)c(N3CC[C@@H]([C@H](C)N)C3)c(F)cc12", 1.20),
    ("Cc1c(N2CC[C@H](O)C2)c(F)cc2c(CN)cc(=O)n(C3CC3)c12", 0.00),
    ("Cc1c(N2CC3CC3(N)C2)c(F)cc2c(CN)c(O)c(=O)n(C3CC3)c12 (centres undefined)", 0.30),
    ("COc1c(N2CC3(C)CC3(N)C2)c(F)cc2c(CN)cc(=O)n(C3CC3)c12 (centres undefined)", 1.20),
    ("Cc1c(N2CC[C@@H]([C@H](C)N)C2)c(F)cc2c(-c3n[nH]c(=O)o3)cc(=O)n(C3CC3)c12", 1.51),
]

---

system: Pseudomonas aeruginosa; assay: Antibacterial activity against Pseudomonas aeruginosa NB52023 harboring gyrA T83I mutant/ParC S87L mutant by CLSI-based broth microdilution assay; format: functional
Parameter: MIC. Scope: all listed entries.

# compound, measurementUnit, qual, MIC
data = [
    ("Cc1c(N2CC[C@@H]([C@H](C)N)C2)c(F)cc2c(OCCN(C)C)cc(=O)n(C3CC3)c12", "µg/mL", "=", 8),
    ("Cc1c(N2CC[C@@H]([C@H](C)N)C2)c(F)cc2c(C#N)cc(=O)n(C3CC3)c12", "µg/mL", "=", 1),
    ("Cc1c(N2CC[C@@H]([C@H](C)N)C2)c(F)cc2c(Cl)cc(=O)n(C3CC3)c12", "µg/mL", "=", 8),
    ("Cc1c(N2CC[C@@H]([C@H](C)N)C2)c(F)cc2c(CO)cc(=O)n(C3CC3)c12", "µg/mL", "=", 8),
    ("Cc1c(N2CCCC2)c(F)cc2c(CN)cc(=O)n(C3CC3)c12", "µg/mL", "=", 8),
    ("Cc1c(N2C[C@@H]3[C@@H](N)[C@@H]3C2)c(F)cc2c(CN)cc(=O)n(C3CC3)c12", "µg/mL", "=", 2),
    ("Cc1c(N2CC[C@@H]([C@H](C)N)C2)c(F)cc2c(O)cc(=O)n(C3CC3)c12", "µg/mL", ">", 32),
    ("Cc1c(N2CC3CC3(N)C2)c(F)cc2c(CN)c(F)c(=O)n(C3CC3)c12 (centres undefined)", "µg/mL", "=", 0.5),
]

---

Parameter: solubility at 24 h. Scope: all listed entries.
assay: Solubility of the compound in pH 7 PBS incubated for 24 hrs under gently shaking condition by UPLC/UV/CLND/MS analysis; assay type: physicochemical; conditions: PBS, pH 7

# molecule, solubility at 24 h
rows = [
    ("Cc1c(N2CC3CC3(N)C2)c(F)cc2c(CN)c(F)c(=O)n(C3CC3)c12 (stereo not drawn)", "1280 µg/mL"),
    ("Cc1c(N2CC[C@@H]([C@H](C)N)C2)c(F)cc2ccc(=O)n(C3CC3)c12", "498 µg/mL"),
    ("Cc1c(N2CC[C@@H]([C@H](C)N)C2)c(F)cc2c(CN)cc(=O)n(C3CC3)c12", "> 555 µg/mL"),
]

---

assay: Oral bioavailability in mouse at 5 mg/kg measured up to 24 hrs by LC-MS/MS analysis; type: ADME, organism-based; settings: in vivo
outcomeMeasure: bioavailability (%)

# compound, outcomeMeasure, measurementUnit, recordedNumber
data = [
    ("Cc1c(N2CC3CC3(N)C2)c(F)cc2c(CN)c(F)c(=O)n(C3CC3)c12 (stereo unspecified)", "bioavailability", "%", 36),
]

---

target: DNA gyrase (Escherichia coli, UniProt P0AES4+P0AES6); assay: Inhibition of recombinant full-length C-terminal His6-tagged Escherichia coli DNA gyrase AB supercoiling activity using relaxed DNA as substrate preincubated for 30 mins followed by substrate addition and measured after 2 hrs in presence of ATP by size exclusion HPLC analysis

# molecule, IC50 (nM)
records = [
    ("Cc1c(N2CC3CC3(N)C2)c(F)cc2c(CN)c(F)c(=O)n(C3CC3)c12 (stereo not drawn)", 1250),
    ("Cc1c(N2CC[C@@H]([C@H](C)N)C2)c(F)cc2ccc(=O)n(C3CC3)c12", 430),
    ("Cc1c(N2CC[C@@H]([C@H](C)N)C2)c(F)cc2cc(C(=O)O)c(=O)n(C3CC3)c12", 2910),
]
